# Assay protocol: NCI Yeast Anticancer Drug Screen. Data for the rad50 strain (AID 155);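 also: 0% = growth of vehicle-only cultures of the same strain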
# Test settings: S. cerevisiae rad50 strain growth inhibition; at 50.0 µM; hits give high values
Compounds without any hit were thinned out: in the full panel of roughly 79,000, 15% have a hit. Where a SMILES comes first, the peptide text is derived from it. The star is where a group is joined. Cbz = O=C(OCc1ccccc1)*; Boc = CC(C)(C)OC(=O)*; OSu = O=C1CCC(=O)N1O*; Bn = c1ccc(C*)cc1
Hi there, I'd appreciate the recorded growth inhibition for every entry that follows.
Note: unit % is implicit; provide only the numeric part.

Return the recorded growth inhibition value; entry: `O/N=C(/Cc1nc2cc(Cl)c(Cl)cc2nc1C/C(=N/O)c1ccncc1)c1ccncc1` 82.2

Give me measured growth inhibition, please, for this compound: CCCC(C)OC(=O)Nc1cccc(Cl)c1 (centres undefined) 98.4

Give the value of growth inhibition reported for the following: `c1ccc2c(c1)oc1cc3ccncc3cc12` 96.8

Using the record for CCOC(=O)C(NC(C)=O)[CH](c1ccc(OC)cc1)[Sn]([c]1ccccc1)([c]1ccccc1)[c]1ccccc1 (centres undefined) , state its measured growth inhibition. 48.6

Input `O=C(O)COc1c(Cl)c(Cl)c(Cl)c(Cl)c1Cl.[Cu+2]` , output reported growth inhibition. 88

Fill in growth inhibition for record `O=S(=O)(OI(OI(OS(=O)(=O)C(F)(F)F)c1ccccc1)c1ccccc1)C(F)(F)F` 89.2

Tell me measured growth inhibition for `Nc1c(C(=O)Nc2ccccc2)[n+]([O-])c2ccccc2[n+]1[O-]` please. 98.2

Assign growth inhibition to the following record: CC(C)(C)OC(=O)NC(Cc1ccc(OCc2ccccc2)cc1)C(=O)NC(CCCCNC(=O)OCc1ccccc1)C(=O)ON1C(=O)CCC1=O (centres undefined) (Boc-Tyr(Bn)-Lys(Cbz)-OSu; configuration not given here) 64.2

# return recorded growth inhibition for input `Oc1ccc(O)c2nc3ccccc3nc12` 50.8
